Quick reference: GI50 of the listed items.
Tested on: SF-268 CNS
Assay: NCI tumour cell line growth inhibition, 48 h

[
  {
    "compound": "COc1cc(-c2n/c(=C\\c3c(O)[nH]c4ccc(Cl)cc34)cc3c2=Nc2ccccc2-3)ccc1F",
    "experimental result": "2.05 µM"
  }
]

Lookup: GI50 for Cn1c2c(c3ccc(Cl)c(Cl)c31)C(C#N)C1(CCNCC1)NC2=O (centres undefined) ?
Found: 1.77 µM

Lookup: GI50 for "C=C1C(=O)O[C@H]2[C@H]1CC/C(COC(=O)c1cc3cc(Cl)ccc3[nH]1)=C\CC[C@@]1(C)O[C@@H]21" ?
Found: 1.44 µM

Lookup: GI50 for "Cc1[nH]nc(C(=O)n2nc(N)c3ccccc32)c1[N+](=O)[O-]" ?
Found: > 100 µM

Lookup: GI50 for "COc1cc(S(=O)(=O)Nc2ccc(C(=O)/C=C/c3ccc(O)cc3)cc2)ccc1F" ?
Found: > 100 µM

Lookup: GI50 for "COc1ccccc1/C=C/C(=O)c1ccccc1" ?
Found: 13.1 µM

Lookup: GI50 for "CC[C@H](Nc1nc(C)nc(N)c1C#N)c1nc2cccc(NCc3ccc(C(=O)NO)cc3)c2c(=O)n1-c1ccccc1" ?
Found: 1.63 µM

Lookup: GI50 for "CCOc1cccc(/C=N/NC(=O)C(=O)Nc2cccc(C(F)(F)F)c2)c1O" ?
Found: 1.24 µM

Lookup: GI50 for "Nc1ccccc1C#C/C=C\C#Cc1ccccc1[N+](=O)[O-]" ?
Found: 6.38 µM

====

Tested on: RXF 393 renal
Assay: NCI tumour cell line growth inhibition, 48 h; in the data active = GI50 below about 0.43 µM; inactive = the rest
Reply using exactly one outcome from active, inactive

Completed entries (count: 5):
[
  {
    "compound": "COc1cc2c(=O)n(CCN)c3c4cc5c(cc4ccc3c2cc1OC)OCO5",
    "group": "inactive"
  },
  {
    "compound": "CC[C@H](Nc1nc(C)nc(N)c1C#N)c1nc2cccc(NCc3ccc(C(=O)NO)cc3)c2c(=O)n1-c1ccccc1",
    "group": "inactive"
  },
  {
    "compound": "CCn1c(-c2nonc2N)nc2c(C#CC(C)(C)O)nc(OCCNC)cc21",
    "group": "inactive"
  },
  {
    "compound": "CCOC(=O)/C=C/C1=C(c2cccs2)c2ccccc2CC1",
    "group": "inactive"
  },
  {
    "compound": "C/C=C1\\NC(=O)[C@H]2CSSCCC=C[C@H](CC(=O)N[C@H](C(C)C)C(=O)N2)OC(=O)[C@H](C(C)C)NC1=O",
    "group": "active"
  }
]

Lookup: Any idea what this test logged for CC[PH+](CC)CC.O=COC1OC([S-])C(OC=O)C(OC=O)C1OC=O.[Au+] (stereo unspecified) ?
Found: inactive

====

System: SK-MEL-2 melanoma
Experiment: NCI tumour cell line growth inhibition, 48 h
readout: TGI

[
  {
    "compound": "CC(C)N1CC2CC(CN(C(=O)c3ccccc3)C2)C1",
    "TGI": "> 100 µM"
  },
  {
    "compound": "CC(C)c1cccc(C(C)C)c1NC(=O)/C(CC(=O)CC(c1ccccc1)c1c(O)c2ccccc2oc1=O)=N/O (configuration not stated)",
    "TGI": "> 100 µM"
  },
  {
    "compound": "O=C(/C=C/C(=O)N1CCCC1)N1CCCC1",
    "TGI": "> 100 µM"
  },
  {
    "compound": "COc1ccc(Nc2nc(N)c(C(=O)c3c[nH]c4ccccc34)s2)cc1",
    "TGI": "> 72.5 µM"
  },
  {
    "compound": "COc1ccc(-c2oc3c(OC)c(OC)c(OC)c(OC)c3c(=O)c2OC)cc1OC",
    "TGI": "> 100 µM"
  },
  {
    "compound": "CCOc1cc(/C=N\\Nc2nnc(C)n2N)c(C)cc1N(CCCl)CCCl",
    "TGI": "5.33 µM"
  }
]

Alright, here's another compound for you.
Lookup: TGI for "CCOc1ccc(Nc2nc(N)nc(N)c2N)cc1" ?
Found: > 100 µM

Data origin, for the record: PubChem BioAssay (NCI)
